Value source: PubChem BioAssay AID602396

molecular target: Nuclear receptor subfamily 5 group A member 2 (Homo sapiens) (UniProt O00482); assay: LRH-1 (NR5A2) inverse agonists, primary screen, cell-based, luminescence, HEK293T, StAR-luciferase reporter (AID 602396); details: LRH-1 transfected, 24 h, at 3.6 µM, stronger effect = higher value;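 also: 0% = DMSO wells and 100% = reporter-only cells lacking LRH-1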
Sequence (O00482 whole entry, looked up): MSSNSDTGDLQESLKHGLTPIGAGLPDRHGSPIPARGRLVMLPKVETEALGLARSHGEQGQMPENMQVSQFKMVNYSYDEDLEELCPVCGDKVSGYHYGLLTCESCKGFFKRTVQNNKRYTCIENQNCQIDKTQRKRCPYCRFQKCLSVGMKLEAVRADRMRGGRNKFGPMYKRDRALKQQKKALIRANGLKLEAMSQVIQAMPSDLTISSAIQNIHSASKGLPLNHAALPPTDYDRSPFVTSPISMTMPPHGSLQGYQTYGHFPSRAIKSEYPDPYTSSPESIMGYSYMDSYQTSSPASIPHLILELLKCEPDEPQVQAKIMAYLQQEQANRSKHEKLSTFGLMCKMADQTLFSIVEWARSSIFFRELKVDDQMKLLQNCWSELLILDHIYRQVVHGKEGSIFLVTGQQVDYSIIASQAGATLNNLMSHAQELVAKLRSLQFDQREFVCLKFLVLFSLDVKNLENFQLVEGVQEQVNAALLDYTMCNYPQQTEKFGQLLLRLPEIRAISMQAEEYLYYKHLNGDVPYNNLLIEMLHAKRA
About 460 (0.13%) of roughly 360,000 compounds were called active. Many of the other results were omitted from the sample, so actives are more common in it than they were.
Provide the recorded inhibition for the entries that follow.

Answer for every listed entry: what is its inhibition? The entries follow.
1. CC(C)Nc1nc(NCCOc2ccccc2Cl)c2sccc2n1
2. CCOC1CCCCC1NS(=O)(=O)c1ccc(Cl)cc1 (stereo not given)
3. CC[C@H]1CN2CCc3cc(OC)c(OC)cc3[C@@H]2C[C@@H]1C[C@H]1NCCc2cc(OC)c(OC)cc21

Marked response:
1: 18.8% (inactive); 2: 5.98% (inactive); 3: 103% (active)

Give inhibition for each listed item.
1. CC[C@@H]1CC2=C(C(=O)OC(C)(C)O2)[C@@H](CC)O1
2. Cc1cc(=O)cc(C)[nH]1
3. COC(=O)C(C(=O)Nc1cccc(Cl)c1C)C1CCCC1 (stereo not given)
4. CCC(C)(C)NC(=O)C(c1cccn1C)N(Cc1ccc(C)cc1)C(=O)Cn1nnc2ccccc21 (stereo not given)
5. CCn1nc(C(=O)NNS(=O)(=O)c2cc(/C=C/C(=O)O)cc(OC)c2OC)c2ccccc2c1=O

Marked response:
1. 13.2% (inactive)
2. 3.47% (inactive)
3. 1.94% (inactive)
4. 22.9% (inactive)
5. 11.4% (inactive)

Report inhibition for each item below.
1. CCN(CC)S(=O)(=O)c1cccc(C(=O)NCC(=O)OCC(=O)NCc2ccccc2)c1
2. Cc1cccc2cc(CN(C(=O)c3cccs3)c3ccccc3)c(=O)[nH]c12

Marked response:
["1.85% (inactive)", "-23.1% (inactive)"]

* * *

biological target: Nuclear receptor subfamily 5 group A member 2 (Homo sapiens) (UniProt O00482); test: LRH-1 (NR5A2) inverse agonists, primary screen, cell-based, luminescence, HEK293T, StAR-luciferase reporter (AID 602396); settings: LRH-1 transfected, 24 h, at 3.6 µM, stronger effect = higher value;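 also: 0% = DMSO wells and 100% = reporter-only cells lacking LRH-1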
Out of some 360,000 compounds screened, about 460 (0.13%) were called active. This is one part of a sample in which actives are shown more often than they occur.
ASSAY READOUT: inhibition (%)
Give bare numbers, in %.

Parameters: items (list). Returns: inhibition for each item.
1. NS(=O)(=O)c1ccc(NC(=O)/C=C/c2ccccc2Cl)cc1
2. O=C(O)COc1nsnc1N1CCOCC1

Marked response:
-11.9
-2.76

Below are some molecules; for each one, tell me its inhibition.
1. CCC1=NN(C(=O)Cc2ccc([N+](=O)[O-])cc2)C(O)(c2ccc(Br)cc2)C1 (stereo not given)
2. COc1ccc(N(C(=O)c2ccc(C)cc2)S(=O)(=O)c2cccs2)cc1
3. Cc1cc(N2CCCC2=O)cc(C)c1S(N)(=O)=O
4. COc1ccc(C2(C)ON(c3ccccc3C(F)(F)F)C2=O)cc1 (stereo not given)
5. Cc1ccc(NC(=O)CSc2sc3c(O)cc(=O)[nH]c3c2C#N)cc1C
6. CC(=O)Nc1ccc(SC[C@H](Cc2ccccc2)N2CC[C@@H](C)CCC2=O)cc1
7. COc1ccc(Cl)cc1NS(=O)(=O)c1cccc(C(=O)NCC2CCCO2)c1 (stereo not given)
8. COc1ccc(S(=O)(=O)N2CCOC23CCN(S(=O)(=O)c2ccc([N+](=O)[O-])cc2)CC3)cc1

Marked response:
1. -7.24
2. 2.34
3. 7.43
4. -1.81
5. 6.61
6. -2.81
7. 10.9
8. 4.75

* * *

molecular target: Nuclear receptor subfamily 5 group A member 2 (Homo sapiens) (UniProt O00482); experiment: LRH-1 (NR5A2) inverse agonists, primary screen, cell-based, luminescence, HEK293T, StAR-luciferase reporter (AID 602396); details: LRH-1 transfected, 24 h, at 3.6 µM;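 also: 0% = DMSO wells and 100% = reporter-only cells lacking LRH-1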
About 460 (0.13%) of roughly 360,000 compounds were called active.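 How the source made its calls: active means inhibition above the mean inhibition of all tested compounds plus 3 SD (cut at about 73% in these data); inactive means the rest.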 This is one part of a sample in which actives are shown more often than they occur.
Reply using exactly one outcome from TRUE (active), FALSE (inactive)

CCN1/C(=C\c2ccc3ccccc3[n+]2CC)Sc2cc(C)ccc21 ... TRUE
Cc1ccccc1/[N+]([O-])=C/c1ccncc1 ... FALSE
CC(=O)NS(=O)(=O)c1ccc2c(c1)Cc1cc(S(=O)(=O)NC(C)=O)ccc1-2 ... FALSE
Cc1ccc(C)c(S(=O)(=O)Nc2cc(C)on2)c1 ... FALSE
CCOc1ccc(NS(=O)(=O)c2cc(C)c(C)cc2C)cc1 ... FALSE

Exam item: Dear all, I need the recorded test outcome for "CCOC(=O)CSC1=N/C(=C/c2ccc(-n3cncn3)cc2)C(=O)N1C(C)=O" , thank you.
Marked response: FALSE

Exam item: For Cc1ccc(CC2CC(=O)N(c3cc(C)ccc3C)C2=O)cc1 (configuration not stated) , which call appears in the assay record?
Marked response: FALSE

Exam item: Dear all, I need the recorded test outcome for "Cc1ccc(-c2ccnc3nc(Sc4ncc(C(F)(F)F)cc4Cl)nn23)cc1" , thank you.
Marked response: FALSE

Exam item: Short answer needed: outcome of this test for "CCOCCCNC(=O)c1cn(CC(C)C)c(=O)c2c1c1ccccc1n2C" ?
Marked response: FALSE

* * *

molecular target: Nuclear receptor subfamily 5 group A member 2 (Homo sapiens) (UniProt O00482); assay: LRH-1 (NR5A2) inverse agonists, primary screen, cell-based, luminescence, HEK293T, StAR-luciferase reporter (AID 602396); conditions: LRH-1 transfected, 24 h, at 3.6 µM, stronger effect = higher value;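 also: 0% = DMSO wells and 100% = reporter-only cells lacking LRH-1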
Out of some 360,000 compounds screened, about 460 (0.13%) were called active. The sample as a whole holds a higher share of actives than the screen did.
Assign inhibition to each entry below.
Answers are plain numbers, in %.

COc1cccc(CNS(=O)(=O)c2cc3c(cc2C)n(C)c(=O)c(=O)n3C)c1 ... 1.81
COC1(C2=NCCN2)COc2ccccc2O1 (stereo unspecified) ... 15.1
CCOc1ccc(N2CC(C(=O)N/N=C/c3sccc3C)CC2=O)cc1 (stereo unspecified) ... 3.97

Each of the following entries comes with a recorded value; kindly state inhibition for each.
1. CCc1cc(=O)oc2cc(C)cc(OC(C)C(=O)O)c12 (stereo unspecified)
2. O=C(NC1CCC(O)CC1)c1ccccc1OCc1ccc(F)cc1 (stereo unspecified)

Marked response:
6.8
21.9

Batch request: inhibition per item, same order as input.
1. Cc1ccn2c(=O)nc(SCC(=O)NCc3ccc4c(c3)OCO4)nc2c1
2. O=C(c1cc2ccccc2o1)N1CCN(S(=O)(=O)c2ccc(Cl)s2)CC1
3. CC(=O)Nc1ccc(NC(=O)CSc2nnnn2-c2ccccc2F)cc1
4. CC(C)CCC(=O)Nc1cc(S(=O)(=O)N2CCOCC2)ccc1N1CCCC1
5. COc1ccc(OCCn2ccnc2C)cc1
6. O=C(NCCCn1ccnc1)C(=O)c1cn(CC(=O)N2CCCCCC2)c2ccccc12

Marked response:
1: -9.89; 2: -4.99; 3: 3.27; 4: 6.05; 5: 10.9; 6: 9.94

* * *

target: Nuclear receptor subfamily 5 group A member 2 (Homo sapiens) (UniProt O00482); assay: LRH-1 (NR5A2) inverse agonists, primary screen, cell-based, luminescence, HEK293T, StAR-luciferase reporter (AID 602396); conditions: LRH-1 transfected, 24 h, at 3.6 µM, stronger effect = higher value;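 also: 0% = DMSO wells and 100% = reporter-only cells lacking LRH-1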
In all, about 360,000 compounds went through this assay and about 460 (0.13%) were called active. Only a selection was taken, and actives are over-represented in it overall.
ASSAY READOUT: inhibition (%)
One number for each entry, in %.

Use the examples below as a reference point.
N/C(=N\S(=O)(=O)c1cc(C(F)(F)F)cc(C(F)(F)F)c1)c1cccs1 ... 10.3
CC(Sc1nnc(-c2cccs2)n1C1CC1)C(=O)NCC1CCCO1 (configuration not stated) ... -12.2
CCC(=O)N(C)C(c1ccccc1Cl)c1nnnn1-c1c(C)cccc1C (configuration not stated) ... 1.16
O=C(Nc1ccccc1N1CCOCC1)c1ccc(OCc2cscn2)cc1 ... 3.78
Cc1cc(NC(=O)COC(=O)/C=C/c2ccc(C)o2)no1 ... -7.21
[2H]C(CCOS(N)(=O)=O)c1ccccc1 (configuration not stated) ... 3.1
Nc1nc(SCC(=O)NNc2c(Cl)cc(Cl)cc2Cl)n[nH]1 ... 14.2
CC1CC(C)(C)CC2(C1)NC(=O)N(CC(=O)Nc1nccs1)C2=O (configuration not stated) ... -13.1

// batch mode: one inhibition value per listed entry
1. NC(=NC(=O)c1ccccc1)C1=C(O)CCC1=O
2. COCCCN1C(=O)C(=O)/C(=C(/O)c2ccc(S(=O)(=O)N3CCOCC3)cc2)C1c1ccc(F)cc1 (configuration not stated)
3. CCOC(=O)c1sc(N(Cc2ccccc2)C(=O)CN2C(=O)CN(C)C2=O)nc1C
4. CCOCCCNC(=O)C(NC(=O)c1ccc(=O)[nH]c1)c1ccc(Cl)cc1 (configuration not stated)
5. CSc1nnc(C2CCCN(CC(=O)Nc3ccccc3N3CCOCC3)C2)n1C(C)C (configuration not stated)
6. CCc1nc2c(OCc3ccc(F)c(F)c3)cccn2c1N(C)C(=O)c1ccco1
7. CCCCCN(C(=O)NC(=O)Nc1cccc(C)c1C)S(C)(=O)=O
8. CC(C)=NN1C(=O)c2ccccc2NC1(C)C

Marked response:
[-13.8, 9.93, -6.11, 11.9, -21.8, -12.9, -7.26, -62.5]

Lab note: each compound below needs its inhibition filled in.
1. COc1cccc2c1C(=O)c1c(O)c3c(c(O)c1C2=O)CC(O)(C(C)=NNC(=O)c1ccc(Cl)c(Cl)c1)CC3OC1CC(N)C(O)C(C)O1 (configuration not stated)
2. CC1(C)CC(=O)C=C(c2ccc3ncccc3c2)C1
3. C=CCn1c(CNS(=O)(=O)c2ccc(Br)cc2)nnc1SC
4. CN(C)S(=O)(=O)c1ccc(N2CCCC2)c(C(=O)Nc2cccc(F)c2)c1
5. CCCOc1ccc(CN(CCO)CCO)cc1C(=O)OC
6. CC(C)c1ccc(NC(=O)C2CCCN(S(=O)(=O)c3cccnc3)C2)cc1 (configuration not stated)

Marked response:
1. 95.6
2. 47.8
3. -25.5
4. 8.36
5. 23.4
6. -1.1
